The measured values listed here are drawn from patent US20230382925A1.

Some compounds, each annotated with its measured EC50.
target: CFTR (Homo sapiens, UniProt P13569); experiment: Membrane Potential Dye, Enteroid Assay A; type: cell-based; details: read-out: Ent. A EC50
Sequence (P13569 with tags, fused parts or gaps DEL508-508): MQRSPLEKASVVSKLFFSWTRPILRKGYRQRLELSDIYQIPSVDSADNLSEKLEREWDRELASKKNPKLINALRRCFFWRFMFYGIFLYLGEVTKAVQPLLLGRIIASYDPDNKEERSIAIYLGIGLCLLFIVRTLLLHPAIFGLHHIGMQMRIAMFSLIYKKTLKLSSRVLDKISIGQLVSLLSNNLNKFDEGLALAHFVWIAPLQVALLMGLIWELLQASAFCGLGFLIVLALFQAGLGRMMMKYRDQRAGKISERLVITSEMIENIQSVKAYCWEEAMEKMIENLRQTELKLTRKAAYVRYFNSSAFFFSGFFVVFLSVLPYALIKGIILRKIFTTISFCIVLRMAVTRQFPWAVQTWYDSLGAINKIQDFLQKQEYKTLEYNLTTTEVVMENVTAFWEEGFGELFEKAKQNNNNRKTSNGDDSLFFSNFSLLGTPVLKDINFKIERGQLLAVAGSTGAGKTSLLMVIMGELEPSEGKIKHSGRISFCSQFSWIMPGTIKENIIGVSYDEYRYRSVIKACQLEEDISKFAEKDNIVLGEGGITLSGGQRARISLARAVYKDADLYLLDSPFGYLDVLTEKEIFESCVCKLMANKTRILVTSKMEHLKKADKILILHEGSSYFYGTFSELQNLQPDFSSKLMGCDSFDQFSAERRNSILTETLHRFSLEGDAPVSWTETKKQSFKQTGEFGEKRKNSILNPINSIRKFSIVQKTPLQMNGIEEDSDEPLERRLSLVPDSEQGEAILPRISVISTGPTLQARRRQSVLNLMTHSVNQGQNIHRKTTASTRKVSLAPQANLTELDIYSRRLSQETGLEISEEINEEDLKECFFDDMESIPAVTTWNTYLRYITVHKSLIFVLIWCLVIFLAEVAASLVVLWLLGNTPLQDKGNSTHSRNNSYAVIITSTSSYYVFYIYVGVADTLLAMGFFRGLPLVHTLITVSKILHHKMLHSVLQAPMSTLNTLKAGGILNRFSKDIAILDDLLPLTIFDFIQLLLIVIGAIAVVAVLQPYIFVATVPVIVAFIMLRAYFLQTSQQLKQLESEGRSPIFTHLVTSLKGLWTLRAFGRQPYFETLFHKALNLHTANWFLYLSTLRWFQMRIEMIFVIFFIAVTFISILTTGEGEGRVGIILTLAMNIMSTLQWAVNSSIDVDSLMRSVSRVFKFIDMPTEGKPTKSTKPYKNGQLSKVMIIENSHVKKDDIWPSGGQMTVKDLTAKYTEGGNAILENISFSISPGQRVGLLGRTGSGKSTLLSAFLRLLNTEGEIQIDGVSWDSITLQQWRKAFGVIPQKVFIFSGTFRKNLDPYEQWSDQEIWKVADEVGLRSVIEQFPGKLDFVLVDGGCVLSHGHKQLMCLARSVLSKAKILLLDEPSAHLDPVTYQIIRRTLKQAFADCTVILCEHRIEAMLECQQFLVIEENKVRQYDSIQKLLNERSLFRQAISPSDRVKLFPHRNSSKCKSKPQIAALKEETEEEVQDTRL

Compound: Cc1cccc(C)c1-c1cc2nc(n1)NS(=O)(=O)c1cccc(c1)C(=O)N(C1CCC1)[C@H](CC(C)C)CO2 [Compound 27]
Property: EC50
Observed Result: < 1 µM

Compound: COC(=O)N1CCCC2(CC(N3C(=O)c4cccc(c4)S(=O)(=O)Nc4nc(cc(-c5c(C)cccc5C)n4)OC[C@H]3CC(C)C)C2)C1 (stereo partly drawn) [Compound 327]
Property: EC50
Observed Result: < 1 µM

Compound: Cc1cccc(C)c1-c1cc2nc(n1)NS(=O)(=O)c1cccc(c1)C(=O)N(C1CC3(CC3)C1)C(CC(F)(F)F)CO2 (single isomer, unassigned) [Compound 109]
Property: EC50
Observed Result: 1 to 3 µM

Compound: Cc1cccc(C)c1-c1cc2nc(n1)NS(=O)(=O)c1cccc(c1)C(=O)N(C1CC(C(=O)N3CCN(C)CC3)C1)[C@H](CC(C)C)CO2 (stereo partly drawn) [Compound 36]
Property: EC50
Observed Result: < 1 µM

Compound: CC(=O)N1CCC2(CC1)CC(N1C(=O)c3cccc(c3)S(=O)(=O)Nc3nc(cc(-c4c(C)cccc4C)n3)OC[C@H]1CC(C)C)C2 [Compound 16]
Property: EC50
Observed Result: < 1 µM

Please look at the following compound next.
q: Check the records and state EC50 for Cc1cccc(C)c1-c1cc2nc(n1)NS(=O)(=O)c1cccc(c1)C(=O)N(C1CC3(CCN(C)CC3)C1)C(CC1(C(F)(F)F)CC1)CO2 (single isomer, unassigned) [Compound 137]
a: 1 to 3 µM
